Experiment: Pharmacokinetics of ISDF in rats: baicalin in plasma
Assay type: in vivo, Sprague–Dawley rats
Conditions: Sprague-Dawley, rat, 18.9 g/kg, oral ISDF 18.90 g/kg, read-out: Mean residence time (MRT0-t)
metricName: MRT last

Tell me the measured MRT last of O=C(O)[C@H]1O[C@@H](Oc2cc3oc(-c4ccccc4)cc(=O)c3c(O)c2O)[C@H](O)[C@@H](O)[C@@H]1O , please.
7.98 h

---

Experiment: Pharmacokinetics of ISDF in rats: baicalin in plasma
Assay type: in vivo, Sprague–Dawley rats
Conditions: Sprague-Dawley, rat, 18.9 g/kg, oral ISDF 18.90 g/kg, read-out: The maximum concentration (Cmax)
metricName: Cmax
Enter the number, and then the unit.

Tell me the measured Cmax of O=C(O)[C@H]1O[C@@H](Oc2cc3oc(-c4ccccc4)cc(=O)c3c(O)c2O)[C@H](O)[C@@H](O)[C@@H]1O [Baicalin, baicalin] , please.
670 ng/mL

---

Experiment: Pharmacokinetics of ISDF in rats: baicalin in plasma
Format: in vivo, Sprague–Dawley rats
Conditions: Sprague-Dawley, rat, 18.9 g/kg, oral ISDF 18.90 g/kg, read-out: Area under the curve (AUC0-∞)
metricName: AUC(0-inf) (ng·h/mL)
Answers are plain numbers, in ng·h/mL.

Tell me the measured AUC(0-inf) of O=C(O)[C@H]1O[C@@H](Oc2cc3oc(-c4ccccc4)cc(=O)c3c(O)c2O)[C@H](O)[C@@H](O)[C@@H]1O , please.
10000

---

Experiment: Pharmacokinetics of ISDF in rats: berberine in erythrocytes
Assay type: in vivo, Sprague–Dawley rats
Settings: Sprague-Dawley, rat, 18.9 g/kg, oral ISDF 18.90 g/kg, read-out: The maximum concentration (Cmax)
metricName: Cmax (ng/mL)
Numbers only, in ng/mL.

Tell me the measured Cmax of COc1ccc2cc3[n+](cc2c1OC)CCc1cc2c(cc1-3)OCO2 , please.
1440
